Value source: patent US7429578B2

Listed here: items and their measured melting point.

# query: melting point of entry `O=C1NCCc2c(-c3ccsc3)[nH]c3cccc1c23` 255 to 256 °C

# query: melting point of entry `CCCCCCCCOC(=O)c1[nH]c2cccc3c2c1CCNC3=O` 170 to 171 °C

# query: melting point of entry `O=C1NCCc2c(-c3ccccc3O)[nH]c3cccc1c23` 305 °C (dec.)

# query: melting point of entry `CSc1ccc(-c2[nH]c3cccc4c3c2CCNC4=O)cc1` 250 to 251 °C

# query: melting point of entry `O=C1NCCc2c(-c3cccc(CCO)c3)[nH]c3cccc1c23` 187.5 to 188.5 °C

# query: melting point of entry `O=C1NCCc2c(-c3ccc(C(F)(F)F)cc3)[nH]c3cccc1c23` 208 to 209 °C

# query: melting point of entry `CC(C)NC(=O)c1[nH]c2cccc3c2c1CCNC3=O` 261 to 262 °C (dec.)

# query: melting point of entry `CN(C)Cc1cccc(-c2[nH]c3cccc4c3c2CCNC4=O)c1` 222 to 225 °C
